target.of.assay: T1, human amylin-3(a) receptor (human, UniProt P30988 25-474; O60896 24-148)
T1 sequence (looked up) 1: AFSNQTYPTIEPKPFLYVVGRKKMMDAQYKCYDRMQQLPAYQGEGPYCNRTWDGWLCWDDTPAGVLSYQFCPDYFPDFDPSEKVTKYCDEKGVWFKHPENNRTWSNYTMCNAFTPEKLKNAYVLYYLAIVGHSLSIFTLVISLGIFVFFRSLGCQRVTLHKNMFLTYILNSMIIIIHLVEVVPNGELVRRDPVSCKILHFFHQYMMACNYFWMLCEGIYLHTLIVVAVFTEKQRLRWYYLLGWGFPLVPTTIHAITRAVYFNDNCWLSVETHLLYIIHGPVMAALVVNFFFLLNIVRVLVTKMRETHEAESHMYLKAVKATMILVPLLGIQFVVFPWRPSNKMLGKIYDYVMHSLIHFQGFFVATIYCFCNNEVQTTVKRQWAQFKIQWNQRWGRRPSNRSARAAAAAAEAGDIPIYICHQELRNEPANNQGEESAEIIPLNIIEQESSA
T1 sequence (looked up) 2: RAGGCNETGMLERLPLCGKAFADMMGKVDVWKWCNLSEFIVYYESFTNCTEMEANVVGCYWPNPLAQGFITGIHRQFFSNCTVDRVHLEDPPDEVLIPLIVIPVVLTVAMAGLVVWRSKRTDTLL
protocol.description: cell-based or functional assay
Numbered stars: 1 amine (or outer) side, 2 acyl side, 3 side chain; on linkers, the order of the positions; unused ones are H or OH. Square brackets hold non-standard residues; d marks the D form. Side chains are listed from the residue outwards. * marks the point of attachment. C20 diacid = O=C(O)CCCCCCCCCCCCCCCCCCC(=O)*; γGlu = O=C(O)[C@H](CCC(=O)[*:2])N[*:1]; Chem. 28 = not defined here; AEEA = NCCOCCOCC(=O)O; Aib = CC(C)(N)C(=O)O
Overview of recorded hAMYR3 Potency, no HSA, EC50 [pM] for various binders
State the answer as a number, implicitly in pM.

>  <binder>
Compound 58 (reading uncertain) peptide: Y[Aib]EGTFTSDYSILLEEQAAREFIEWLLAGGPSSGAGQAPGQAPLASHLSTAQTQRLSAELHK(Chem. 28)LATLPRTETGSGSP-NH2

>  <hAMYR3 Potency, no HSA, EC50 [pM] / pM>
2.91

$$$$
>  <binder>
Compound 44 (reading uncertain) peptide: H[Aib]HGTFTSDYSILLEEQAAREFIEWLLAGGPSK(Chem. 28)GALAQTLGTNEASELSTAALGRLSAELHRLATLPRTETGSGSP-NH2

>  <hAMYR3 Potency, no HSA, EC50 [pM] / pM>
3.8

$$$$
>  <binder>
Compound 53 (reading uncertain) peptide: Y[Aib]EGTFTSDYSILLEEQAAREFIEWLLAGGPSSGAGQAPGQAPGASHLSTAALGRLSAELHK(Chem. 28)LATLPRTETGSGSP-NH2

>  <hAMYR3 Potency, no HSA, EC50 [pM] / pM>
3.22

$$$$

In the following, a different binder is considered.
Query string: Suppose we examine the binder Compound 16 (peptide) peptide: H[Aib]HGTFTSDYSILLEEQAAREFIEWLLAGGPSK([AEEA-AEEA-γGlu-C20 diacid])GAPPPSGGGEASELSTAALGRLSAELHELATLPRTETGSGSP-NH2 ; what hAMYR3 Potency, no HSA, EC50 [pM] value has been reported?
Result string: 5.7
